- test summary: Inhibition of PTPN2 in IFN-gamma induced mouse B16-F10 cells
- Type: cell-based
- test context: Mus musculus, B16-F10
Please respond with reported pIC50 for every item in the list.
Answers are plain numbers, as −log10 of the molar value.

{"molecule": "CCC1Cc2c(cc(O)c(N3CC(=O)NS3(=O)=O)c2F)CCN1C (racemic)", "pIC50": 4.75}
{"molecule": "CC1Cc2c(cc(O)c(N3CC(=O)NS3(=O)=O)c2F)CCN1CC1CC1 (racemic)", "pIC50": 5.99}
{"molecule": "O=C1CN(c2c(O)cc3c(c2F)CCN(CC2CC2)CC3)S(=O)(=O)N1", "pIC50": 6.40}

Now consider the entry below.
Record CN1CCc2cc(O)c(N3CC(=O)NS3(=O)=O)c(F)c2CC1 , field pIC50: 6.34
